Cited source: paper PMC9316000

assay: Pharmacokinetics after single-dose intragastric administration in beagle dogs; type: in vivo; conditions: both sexes, dog, plasma, po, S-IG 5 mg/kg
valueKind: CL/F (mL/min/kg)

CC1(C)OC2CC(=O)OCC23C1C/C(=N\OCCN1CCOCC1)C1(C)C3CC[C@@]2(C)[C@H](c3ccoc3)OC(=O)C3OC312 (stereo partly shown)
156

====

test: Pharmacokinetics after single-dose intragastric administration in rats; assay type: in vivo, Sprague Dawley rats; conditions: Sprague-Dawley, rat, plasma, po; female rats, S-IG 6.5 mg/kg
valueKind: Cmax (ng/mL)

CC1(C)OC2CC(=O)OCC23C1C/C(=N\OCCN1CCOCC1)C1(C)C3CC[C@@]2(C)[C@H](c3ccoc3)OC(=O)C3OC312 (stereo partly shown)
145

====

assay: Pharmacokinetics after single-dose intragastric administration in beagle dogs; assay type: in vivo; settings: both sexes, dog, plasma, po, S-IG 5 mg/kg
valueKind: MRT (h)

CC1(C)OC2CC(=O)OCC23C1C/C(=N\OCCN1CCOCC1)C1(C)C3CC[C@@]2(C)[C@H](c3ccoc3)OC(=O)C3OC312 (stereo partly shown) [HY-071085]
1.46

====

assay: Pharmacokinetics after single-dose intragastric administration in beagle dogs; format: in vivo; details: both sexes, dog, plasma, oral, 1.25 mg/kg intragastric vs intravenous, from AUC0-∞, read-out: absolute oral bioavailability
valueKind: bioavailability (%)

CC1(C)OC2CC(=O)OCC23C1C/C(=N\OCCN1CCOCC1)C1(C)C3CC[C@@]2(C)[C@H](c3ccoc3)OC(=O)C3OC312 (stereo partly shown) [HY-071085]
13.1

====

Assay: Pharmacokinetics after single-dose intravenous administration in rats
Format: in vivo, Sprague Dawley rats
Details: Sprague-Dawley, rat, plasma; female rats, S-IV 3.25 mg/kg
Description: The PK parameters after the intravenous administration of 3.25 mg/kg HY-071085 (before use, prepared with 5% DMSO + 95% normal saline mixture) are listed in Table 1. In vivo PK profiling in the rats: Sprague Dawley rats (approximately 177–221 g in weight) were purchased from Shanghai Xipur-Bikai Experimental Animal Co., Ltd. (Shanghai, China). […] According to the obtained plasma concentration time data, the pharmacokinetic parameters were calculated using Phoenix WinNonlin 8.1 software. […]
valueKind: MRT (min)

CC1(C)OC2CC(=O)OCC23C1C/C(=N\OCCN1CCOCC1)C1(C)C3CC[C@@]2(C)[C@H](c3ccoc3)OC(=O)C3OC312 (stereo partly shown)
20.4

====

Experiment: Pharmacokinetics after repeated-dose intragastric administration in rats
Format: in vivo, Sprague Dawley rats
Details: Sprague-Dawley, rat, plasma, po; male rats, R-IG 6.5 mg/kg, 14 days
Procedure: Male and female rats were given HY-071085 (6.5 mg/kg) by gastric gavage twice a day for 28 days. […] According to the obtained plasma concentration time data, the pharmacokinetic parameters were calculated using Phoenix WinNonlin 8.1 software. […] Due to the drug having significant individual differences in rats, it could not be uniformly fitted with a PK atrioventricular model; as such, the pharmacokinetic parameters analyzed in this study were calculated using a non-atrioventricular model. […]
valueKind: half-life at 14 days

CC1(C)OC2CC(=O)OCC23C1C/C(=N\OCCN1CCOCC1)C1(C)C3CC[C@@]2(C)[C@H](c3ccoc3)OC(=O)C3OC312 (stereo partly shown)
1.52 h

====

experiment: Pharmacokinetics after single-dose intravenous administration in rats; type: in vivo, Sprague Dawley rats; conditions: Sprague-Dawley, rat, plasma; male rats, S-IV 3.25 mg/kg
valueKind: half-life

CC1(C)OC2CC(=O)OCC23C1C/C(=N\OCCN1CCOCC1)C1(C)C3CC[C@@]2(C)[C@H](c3ccoc3)OC(=O)C3OC312 (stereo partly shown)
24 min

====

experiment: Pharmacokinetics after repeated-dose intragastric administration in rats; assay type: in vivo, Sprague Dawley rats; details: Sprague Dawley, rat, plasma, po; female rats, R-IG 6.5 mg/kg, 28 days
valueKind: MRT at 28 days (h)

CC1(C)OC2CC(=O)OCC23C1C/C(=N\OCCN1CCOCC1)C1(C)C3CC[C@@]2(C)[C@H](c3ccoc3)OC(=O)C3OC312 (stereo partly shown)
2.54

====

assay: Pharmacokinetics after repeated-dose intragastric administration in rats; type: in vivo, Sprague Dawley rats; conditions: Sprague-Dawley, rat, plasma, po; male rats, R-IG 6.5 mg/kg, 28 days
valueKind: Tmax at 28 days

CC1(C)OC2CC(=O)OCC23C1C/C(=N\OCCN1CCOCC1)C1(C)C3CC[C@@]2(C)[C@H](c3ccoc3)OC(=O)C3OC312 (stereo partly shown)
36 min

====

assay: Pharmacokinetics after single-dose intragastric administration in rats; assay type: in vivo, Sprague Dawley rats; conditions: Sprague Dawley, rat, plasma, po; female rats, S-IG 3.25 mg/kg; read-out: AUC0-tn
valueKind: AUC (ng·h/mL)

CC1(C)OC2CC(=O)OCC23C1C/C(=N\OCCN1CCOCC1)C1(C)C3CC[C@@]2(C)[C@H](c3ccoc3)OC(=O)C3OC312 (stereo partly shown) [HY-071085]
73.7

====

assay: Pharmacokinetics after single-dose intragastric administration in rats; type: in vivo, Sprague Dawley rats; conditions: Sprague Dawley, rat, plasma, po; female rats, S-IG 3.25 mg/kg
valueKind: MRT (h)

CC1(C)OC2CC(=O)OCC23C1C/C(=N\OCCN1CCOCC1)C1(C)C3CC[C@@]2(C)[C@H](c3ccoc3)OC(=O)C3OC312 (stereo partly shown)
4.06

====

Test: Plasma protein binding, dog plasma
Type: in vitro ADME
Conditions: 400 ng/mL, mean, read-out: plasma protein binding rate (converted)
Experimental: The PPB rate in dogs was about 40% at different concentrations in the concentration range (50–400 ng/mL), and in rats it was about 75%. The PPB rate in human plasma varied greatly at different concentrations, ranging from 100% at a low drug concentration to 58% at a high drug concentration, as shown in Table 4.
valueKind: fraction unbound at 400 ng/mL

CC1(C)OC2CC(=O)OCC23C1C/C(=N\OCCN1CCOCC1)C1(C)C3CC[C@@]2(C)[C@H](c3ccoc3)OC(=O)C3OC312 (stereo partly shown) [HY-071085]
0.545

====

Test: Pharmacokinetics after repeated-dose intragastric administration in rats
Type: in vivo, Sprague Dawley rats
Conditions: Sprague-Dawley, rat, plasma, po; female rats, R-IG 6.5 mg/kg, 14 days; read-out: Vss/F
Description: Male and female rats were given HY-071085 (6.5 mg/kg) by gastric gavage twice a day for 28 days. […] According to the obtained plasma concentration time data, the pharmacokinetic parameters were calculated using Phoenix WinNonlin 8.1 software. […] Due to the drug having significant individual differences in rats, it could not be uniformly fitted with a PK atrioventricular model; as such, the pharmacokinetic parameters analyzed in this study were calculated using a non-atrioventricular model. […]
valueKind: Vd/F at 14 days (L/kg)

CC1(C)OC2CC(=O)OCC23C1C/C(=N\OCCN1CCOCC1)C1(C)C3CC[C@@]2(C)[C@H](c3ccoc3)OC(=O)C3OC312 (stereo partly shown)
80

====

test: Pharmacokinetics after single-dose intragastric administration in rats; type: in vivo, Sprague Dawley rats; details: Sprague-Dawley, rat, plasma, po; male rats, S-IG 6.5 mg/kg; read-out: Vss/F
valueKind: Vd/F (L/kg)

CC1(C)OC2CC(=O)OCC23C1C/C(=N\OCCN1CCOCC1)C1(C)C3CC[C@@]2(C)[C@H](c3ccoc3)OC(=O)C3OC312 (stereo partly shown)
172

====

assay: Pharmacokinetics after repeated-dose intragastric administration in rats; type: in vivo, Sprague Dawley rats; conditions: female, Sprague Dawley, rat, plasma, po, 6.5 mg/kg, female rats, R-IG 6.5 mg/kg, 14 days
valueKind: AUC(0-inf) (ng·h/mL)

CC1(C)OC2CC(=O)OCC23C1C/C(=N\OCCN1CCOCC1)C1(C)C3CC[C@@]2(C)[C@H](c3ccoc3)OC(=O)C3OC312 (stereo partly shown)
233

====

assay: Pharmacokinetics after single-dose intragastric administration in rats; type: in vivo, Sprague Dawley rats; conditions: Sprague Dawley, rat, plasma, po; male rats, S-IG 6.5 mg/kg
valueKind: CL/F

CC1(C)OC2CC(=O)OCC23C1C/C(=N\OCCN1CCOCC1)C1(C)C3CC[C@@]2(C)[C@H](c3ccoc3)OC(=O)C3OC312 (stereo partly shown)
1180 mL/min/kg

====

assay: Pharmacokinetics after single-dose intragastric administration in beagle dogs; assay type: in vivo; settings: both sexes, dog, plasma, po, S-IG 1.25 mg/kg, read-out: AUC0-tn
valueKind: AUC (µg·h/mL)

CC1(C)OC2CC(=O)OCC23C1C/C(=N\OCCN1CCOCC1)C1(C)C3CC[C@@]2(C)[C@H](c3ccoc3)OC(=O)C3OC312 (stereo partly shown)
0.0511

====

experiment: Pharmacokinetics after repeated-dose intragastric administration in rats; type: in vivo, Sprague Dawley rats; details: Sprague-Dawley, rat, plasma, po; male rats, R-IG 6.5 mg/kg, 28 days; read-out: Vss/F
valueKind: Vd/F at 28 days

CC1(C)OC2CC(=O)OCC23C1C/C(=N\OCCN1CCOCC1)C1(C)C3CC[C@@]2(C)[C@H](c3ccoc3)OC(=O)C3OC312 (stereo partly shown) [HY-071085]
169 L/kg
